- Tested on: Kir3.1/Kir3.4 (Homo sapiens, UniProt P48544+P48549)
- Sequence (P48549 whole entry): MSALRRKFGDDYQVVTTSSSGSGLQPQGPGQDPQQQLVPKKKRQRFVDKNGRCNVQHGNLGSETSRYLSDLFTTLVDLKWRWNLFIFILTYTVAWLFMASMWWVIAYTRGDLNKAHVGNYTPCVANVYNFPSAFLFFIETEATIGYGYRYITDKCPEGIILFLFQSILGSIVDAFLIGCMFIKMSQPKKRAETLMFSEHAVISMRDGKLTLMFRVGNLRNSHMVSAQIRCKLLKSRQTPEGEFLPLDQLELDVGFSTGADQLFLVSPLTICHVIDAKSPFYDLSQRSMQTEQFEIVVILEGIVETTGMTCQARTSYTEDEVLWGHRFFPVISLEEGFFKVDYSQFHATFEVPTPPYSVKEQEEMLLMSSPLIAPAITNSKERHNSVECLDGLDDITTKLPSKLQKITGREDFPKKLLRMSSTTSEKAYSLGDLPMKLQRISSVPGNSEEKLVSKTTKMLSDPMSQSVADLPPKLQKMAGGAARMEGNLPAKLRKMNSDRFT
- Sequence (P48544 whole entry): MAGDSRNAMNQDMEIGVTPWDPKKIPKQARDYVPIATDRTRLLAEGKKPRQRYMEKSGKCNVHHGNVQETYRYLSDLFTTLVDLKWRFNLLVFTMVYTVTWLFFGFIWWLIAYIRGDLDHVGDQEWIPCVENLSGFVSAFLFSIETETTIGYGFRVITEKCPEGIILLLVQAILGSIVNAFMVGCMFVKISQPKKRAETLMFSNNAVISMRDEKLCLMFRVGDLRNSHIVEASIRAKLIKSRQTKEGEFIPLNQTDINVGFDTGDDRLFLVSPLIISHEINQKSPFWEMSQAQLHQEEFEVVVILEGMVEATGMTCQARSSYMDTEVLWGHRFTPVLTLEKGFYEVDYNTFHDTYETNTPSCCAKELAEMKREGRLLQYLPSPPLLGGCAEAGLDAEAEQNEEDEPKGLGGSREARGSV
- Assay text: Inhibition of GIRK1/4 (unknown origin)
Measured IC50 by item
Don't forget the unit after the number, please.

Query block: What does the data say about its IC50? Entry: `Cc1cccc(NC(=O)Nc2cc(C(C)C)nn2-c2ccccc2)c1`
Result block: 850 nM

Query block: What does the data say about its IC50? Entry: `CC(C)c1cc(NC(=O)Nc2ccc(F)c(F)c2)n(-c2ccccc2)n1`
Result block: 1400 nM

Query block: What does the data say about its IC50? Entry: `O=C(Nc1cccc(Br)c1)Nc1cc(C2CCC2)nn1-c1ccccc1`
Result block: 720 nM

Query block: What does the data say about its IC50? Entry: `CC(C)c1cc(NC(=O)Nc2cccc(C(F)(F)F)c2)n(-c2ccccc2)n1`
Result block: 1300 nM

Query block: What does the data say about its IC50? Entry: `CC(C)c1cc(NC(=O)Nc2cccc(F)c2)n(-c2ccccc2)n1`
Result block: 780 nM

Query block: What does the data say about its IC50? Entry: `O=C(Nc1cccc(C(F)(F)F)c1)Nc1cc(C2CCC2)nn1-c1ccccc1`
Result block: 690 nM
